Test: In vivo cytokine assay, plasma of Renca tumor-bearing mice
Design: species or system mouse
Settings: Renca tumor-bearing mice; 6 h; 1.48 mg/kg
Description: Cytokines were measured in mouse plasma harvested at 3, 6, 24, or 48 hours after treatment with compounds or ADCs using a Milliplex MAP mouse cytokine/chemokine magnetic bead panel assay kit (MCYTOMAG-70k custom 11-plex kit: MCP1, MIP1α, MIP1β, TNFα, IFNγ, IL-10, IL-12p70, IL-6, IL-1β, IP10, RANTES) and analyzed using a Luminex™ MAGPIX™ Instrument System. Values that were outside of the standard curve range (<3.2 or […]) were excluded from calculation of the mean values.
READOUT KIND: IFNγ in plasma (pg/mL)
State just the number; it will be interpreted in pg/mL.

Can you share its IFNγ in plasma? I mean this compound: CCn1nc(C)cc1C(=O)Nc1nc2cc(C(N)=O)cc(O)c2n1C/C=C/Cn1c(NC(=O)c2cc(C)nn2CC)nc2cc(C(N)=O)cc(OC)c21
0.2
